Data credit: the supplement of paper PMC11061612

System: Hs-633T (Other Solid Carcinomas)
procedureText: combination Emax (second highest fraction inhibited in the dose matrix, 72 h); higher = more inhibition; extreme values may be limits of the assay
readoutLabel: combination Emax

compound="NC1(C(=O)N[C@@H](CCO)c2ccc(Cl)cc2)CCN(c2ncnc3[nH]ccc23)CC1 [Capivasertib] + CC(C)n1c(=O)n(C)c2cnc3cc(F)c(-c4ccc(OCCCN5CCCCC5)nc4)cc3c21 [AZD1390] (first compound max 10 µM, 7x7, partner max 0.3 µM)" datavalue=0.258
compound="CS(=O)(=O)CCNCc1ccc(-c2ccc3ncnc(Nc4ccc(OCc5cccc(F)c5)c(Cl)c4)c3c2)o1 [Lapatinib] + NC1(c2ccc(-c3nc4ccn5c(=O)[nH]nc5c4cc3-c3ccccc3)cc2)CCC1 [MK-2206] (first compound max 10 µM, 7x7, partner max 10 µM)" datavalue=0.905
compound="CC1(C)CCC(CN2CCN(c3ccc(C(=O)NS(=O)(=O)c4ccc(NCC5CCOCC5)c([N+](=O)[O-])c4)c(Oc4cnc5[nH]ccc5c4)c3)CC2)=C(c2ccc(Cl)cc2)C1 [Venetoclax] + CCN(CCO)CCCOc1ccc2c(Nc3cc(CC(=O)Nc4cccc(F)c4)[nH]n3)ncnc2c1 [AZD2811] (first compound max 1 µM, 7x7, partner max 1 µM)" datavalue=0.217

* * *

System: CTB-1 (B-Cell Non-Hodgkin's Lymphoma)
procedureText: combination Emax (second highest fraction inhibited in the dose matrix, 72 h); higher = more inhibition; extreme values may be limits of the assay
combination Emax values for the compounds below.
readoutLabel: combination Emax

compound="Cc1c2c(nn1C)CSCc1cc(n(C)n1)CSc1cc(c3ccccc3c1)OCCCc1c(C(=O)O)n(C)c3c-2c(Cl)ccc13 [AZD5991] + C=CCn1c(=O)c2cnc(Nc3ccc(N4CCN(C)CC4)cc3)nc2n1-c1cccc(C(C)(C)O)n1 [AZD1775] (first compound max 1 µM, partner max 1 µM)" datavalue=0.916
compound="Cc1cc2ncnn2cc1Nc1ncc2c(n1)n(C1CCOCC1)c(=O)n2C [AZD7648] + C=CCn1c(=O)c2cnc(Nc3ccc(N4CCN(C)CC4)cc3)nc2n1-c1cccc(C(C)(C)O)n1 [AZD1775] (first compound max 10 µM, partner max 1 µM)" datavalue=0.905
compound="CCN(CCO)CCCOc1ccc2c(Nc3cc(CC(=O)Nc4cccc(F)c4)[nH]n3)ncnc2c1 [AZD2811] + C[C@@H]1COCCN1C2=NC(=NC(=C2)C3(CC3)[S@](=N)(=O)C)C4=C5C=CNC5=NC=C4 [AZD6738] (first compound max 1 µM, 7x7, partner max 10 µM)" datavalue=0.751
compound="Cc1c2c(nn1C)CSCc1cc(n(C)n1)CSc1cc(c3ccccc3c1)OCCCc1c(C(=O)O)n(C)c3c-2c(Cl)ccc13 [AZD5991] + C[C@@H]1COCCN1C2=NC(=NC(=C2)C3(CC3)[S@](=N)(=O)C)C4=C5C=CNC5=NC=C4 [AZD6738] (first compound max 1 µM, 7x7, partner max 10 µM)" datavalue=0.785
compound="COc1cccc2c1C(=O)c1c(O)c3c(c(O)c1C2=O)C[C@@](O)(C(=O)CO)C[C@@H]3O[C@H]1C[C@H](N)[C@H](O)[C@H](C)O1 [Doxorubicin] + Cc1cc2ncnn2cc1Nc1ncc2c(n1)n(C1CCOCC1)c(=O)n2C [AZD7648] (first compound max 1 µM, 7x7, partner max 10 µM)" datavalue=0.911
compound="COc1cccc(OCCCN)c1-c1cc(Nc2cnc(C#N)cn2)n[nH]1 [Prexasertib] + Cc1cc2ncnn2cc1Nc1ncc2c(n1)n(C1CCOCC1)c(=O)n2C [AZD7648] (first compound max 1 µM, 7x7, partner max 10 µM)" datavalue=0.922
